- assayed_target: Non-receptor tyrosine-protein kinase TYK2 (Homo sapiens)
- Sequence (P29597 whole entry): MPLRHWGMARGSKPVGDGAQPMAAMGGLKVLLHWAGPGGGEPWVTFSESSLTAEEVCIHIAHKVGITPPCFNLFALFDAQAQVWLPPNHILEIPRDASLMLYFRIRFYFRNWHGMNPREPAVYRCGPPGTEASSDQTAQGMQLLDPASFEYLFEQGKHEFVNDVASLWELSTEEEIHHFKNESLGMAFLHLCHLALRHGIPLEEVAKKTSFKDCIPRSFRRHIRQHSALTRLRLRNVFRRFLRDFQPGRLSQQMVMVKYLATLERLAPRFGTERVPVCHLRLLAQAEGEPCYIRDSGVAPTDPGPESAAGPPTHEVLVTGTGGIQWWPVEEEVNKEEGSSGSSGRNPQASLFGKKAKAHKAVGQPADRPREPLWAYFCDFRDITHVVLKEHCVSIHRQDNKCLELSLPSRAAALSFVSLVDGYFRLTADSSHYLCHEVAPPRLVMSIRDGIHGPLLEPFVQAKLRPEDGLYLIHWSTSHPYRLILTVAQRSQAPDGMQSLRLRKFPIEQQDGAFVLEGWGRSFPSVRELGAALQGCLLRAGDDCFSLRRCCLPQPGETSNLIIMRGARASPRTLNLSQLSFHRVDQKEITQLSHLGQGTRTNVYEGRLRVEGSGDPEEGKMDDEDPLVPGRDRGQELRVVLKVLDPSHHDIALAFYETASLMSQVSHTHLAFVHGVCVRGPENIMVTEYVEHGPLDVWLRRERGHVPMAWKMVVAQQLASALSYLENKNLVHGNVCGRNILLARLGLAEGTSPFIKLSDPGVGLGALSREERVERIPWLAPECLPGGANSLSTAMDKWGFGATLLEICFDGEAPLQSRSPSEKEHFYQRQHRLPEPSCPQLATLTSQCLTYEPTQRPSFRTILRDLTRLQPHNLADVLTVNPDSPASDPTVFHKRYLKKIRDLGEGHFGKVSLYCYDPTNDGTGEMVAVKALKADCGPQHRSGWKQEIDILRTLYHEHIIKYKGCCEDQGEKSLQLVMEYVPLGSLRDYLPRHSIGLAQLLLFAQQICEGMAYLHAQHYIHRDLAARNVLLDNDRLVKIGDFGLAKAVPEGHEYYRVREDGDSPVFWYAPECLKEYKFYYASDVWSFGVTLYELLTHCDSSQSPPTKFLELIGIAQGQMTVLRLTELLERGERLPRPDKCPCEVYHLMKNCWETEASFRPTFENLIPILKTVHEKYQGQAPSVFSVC
- measurement_description: Inhibition of TYK2 (unknown origin)
pKd: −log10 of the molar value.
metric_name: pKd

INPUT: Item Cc1ccc(-c2ncn(-c3ccc(Nc4nccc(-c5cccc(N6CCOCC6)c5)n4)cc3)n2)cn1 has what recorded pKd?
OUTPUT: > 6.00

---

- assayed_target: Mitogen-activated protein kinase 10 (Rattus norvegicus)
- Sequence (P49187 whole entry): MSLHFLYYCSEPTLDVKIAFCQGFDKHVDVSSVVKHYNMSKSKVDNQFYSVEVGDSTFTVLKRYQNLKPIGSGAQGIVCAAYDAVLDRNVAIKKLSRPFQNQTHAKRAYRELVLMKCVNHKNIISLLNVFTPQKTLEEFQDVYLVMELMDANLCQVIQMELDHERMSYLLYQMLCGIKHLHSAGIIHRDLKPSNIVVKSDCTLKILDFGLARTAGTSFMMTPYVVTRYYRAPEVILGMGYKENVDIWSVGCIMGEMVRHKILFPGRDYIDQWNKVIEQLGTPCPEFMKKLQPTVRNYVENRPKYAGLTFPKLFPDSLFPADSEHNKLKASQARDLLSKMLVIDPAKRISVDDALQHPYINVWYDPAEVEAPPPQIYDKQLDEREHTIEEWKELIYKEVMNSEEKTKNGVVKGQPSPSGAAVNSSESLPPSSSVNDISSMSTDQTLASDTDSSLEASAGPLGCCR
- measurement_description: Inhibition of JNK3-mediated c-jun phosphorylation in rat INS1 cells
We begin with a simple list: items and their reported pIC50.
Schema: pIC50 number; meaning minus log10 of the concentration expressed in molar units.

Illustrative cases are given below, each with its answer.
compound	observed_result
Cc1ccc(-c2ncn(-c3ccc(Nc4nccc(-c5cccc(N6CCOCC6)c5)n4)cc3)n2)cn1	6.67
COc1cc(NC(=O)c2cccc(-n3cc(NC(=O)Nc4ccccc4)cn3)c2)cc(OC)c1OC	5.92

INPUT: For the compound shown here, Cn1cc(-c2ccc3cnc(Nc4ccc(-n5cnc(N6CCOCC6)n5)cc4)nc3c2)cn1 , give the reported pIC50.
OUTPUT: 6.51

INPUT: If you can, please state the reported pIC50 value of COc1ccc2c(c1)OCC(C(=O)NC(=O)N(CC(=O)NCCCCCCNC(=O)c1ccc(-c3n[nH]c4ccccc34)cc1)CC(C)C)O2 (stereo not drawn) .
OUTPUT: 5.55

---

- assayed_target: Cytochrome P450 2A6 (Homo sapiens)
- Sequence (P11509 whole entry): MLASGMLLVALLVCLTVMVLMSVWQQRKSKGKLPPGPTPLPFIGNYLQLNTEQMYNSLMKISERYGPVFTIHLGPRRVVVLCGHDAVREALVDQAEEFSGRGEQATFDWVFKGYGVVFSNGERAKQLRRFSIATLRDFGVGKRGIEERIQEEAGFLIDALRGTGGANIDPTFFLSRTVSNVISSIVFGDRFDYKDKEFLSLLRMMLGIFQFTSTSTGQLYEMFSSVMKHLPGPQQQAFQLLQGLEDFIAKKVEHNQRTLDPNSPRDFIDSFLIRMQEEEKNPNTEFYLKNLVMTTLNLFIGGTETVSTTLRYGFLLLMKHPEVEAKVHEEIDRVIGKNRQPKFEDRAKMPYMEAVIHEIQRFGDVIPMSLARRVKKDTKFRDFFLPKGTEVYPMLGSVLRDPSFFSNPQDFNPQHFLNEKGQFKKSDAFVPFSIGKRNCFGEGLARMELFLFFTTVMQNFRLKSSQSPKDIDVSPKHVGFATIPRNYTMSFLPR
pIC50: −log10 of the molar value.
metric_name: pIC50

INPUT: Which pIC50 reading was recorded for the compound Cc1ccc(-c2ncn(-c3ccc(Nc4nccc(-c5cccc(N6CCOCC6)c5)n4)cc3)n2)cn1 ?
OUTPUT: < 4.30

---

- assayed_target: Cytochrome P450 2C19 (Homo sapiens, UniProt P33261)
- Sequence (P33261 whole entry): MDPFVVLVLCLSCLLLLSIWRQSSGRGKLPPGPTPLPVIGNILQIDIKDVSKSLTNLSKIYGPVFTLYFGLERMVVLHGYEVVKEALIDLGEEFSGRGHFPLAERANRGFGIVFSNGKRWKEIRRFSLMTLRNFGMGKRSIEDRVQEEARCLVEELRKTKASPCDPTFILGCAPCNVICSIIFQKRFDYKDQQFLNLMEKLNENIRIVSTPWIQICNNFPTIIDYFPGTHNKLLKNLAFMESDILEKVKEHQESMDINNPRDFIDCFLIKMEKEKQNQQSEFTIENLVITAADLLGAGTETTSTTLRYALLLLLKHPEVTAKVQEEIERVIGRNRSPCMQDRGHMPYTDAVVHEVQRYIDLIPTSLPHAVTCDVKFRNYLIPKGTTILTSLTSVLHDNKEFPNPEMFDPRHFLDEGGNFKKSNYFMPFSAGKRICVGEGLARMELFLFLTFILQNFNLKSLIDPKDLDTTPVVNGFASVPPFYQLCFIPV
metric_name: IC50

INPUT: Would you kindly share the measured IC50 for Cc1ccc(-c2ncn(-c3ccc(Nc4nccc(-c5cccc(N6CCOCC6)c5)n4)cc3)n2)cn1 ?
OUTPUT: > 50 µM

---

- measurement_description: Clearance in rat at 1 mg/kg, iv and 2 mg/kg, po
- Format: ADME, organism-based
- setup_conditions: in vivo
metric_name: clearance (mL/min/kg)
Respond with the bare value in mL/min/kg.

INPUT: Find the recorded clearance belonging to O=C(NCCN1CCN(C2CCC2)CC1)c1cccc(-n2ncc3cc(Nc4ccccc4Cl)ccc32)c1 and report it.
OUTPUT: 25
